Experiment: Bmi1 luciferase reporter increase in mESCs, primary screen, esBAF inhibitor project, mouse ES cells, Bmi1 luciferase knock-in, single point (AID 602393);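 further: 0% = median of the plate's neutral control wells and 100% = double that signal; a rise in the Bmi1 reporter signal indicates esBAF inhibition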
Conditions: 24 h, at 12.5 µM, active compounds read high, 100% = twice the neutral-well signal
Among all 350,000 compounds or so, about 7,000 (2%) were called active. What follows is part of a selection rich in actives, with near analogues and random picks from the rest.
Property: reporter increase (%)
One number for each entry, in %.

Examples with their reported reporter increase follow.
Line Notation | U | reporter increase
COCC#Cc1cnc2c(c1)C(=O)N([C@H](C)CO)C[C@H](C)[C@H](CN(C)C(=O)Nc1cc(F)ccc1F)O2 | % | -0.321
C[C@H](NC(=O)C[C@@H]1C=C[C@H](NC(=O)CN2CCOCC2)[C@H](CO)O1)c1ccccc1 | % | -6.32
O=C(COC(=O)c1ccccc1C(=O)c1ccccc1)c1ccco1 | % | -5.33
COc1cccc(NC(=O)N(C)C[C@H]2Oc3ncc(C4=CCCCC4)cc3C(=O)N([C@H](C)CO)C[C@H]2C)c1 | % | 6.32
COC(=O)C[C@H]1CC[C@H](NC(=O)c2ccccc2)[C@@H](CO)O1 | % | -1.98

State the recorded reporter increase for every item in the following list.
1. O=C(OCC(=O)c1c[nH]c2ccccc12)c1cccc(O)c1
2. C[C@H](NC(=O)c1ccccc1)C(=O)OCC(=O)c1c[nH]c2ccccc12
3. CCOc1ncccc1C(=O)OCC(=O)c1c[nH]c2ccccc12

1. 96.8
2. 4.74
3. 5.19

Where do these numbers come from? They come from PubChem BioAssay AID602393.
